Where do these numbers come from? They come from ChEMBL document CHEMBL2218924.

target: Serine/threonine-protein kinase MARK1 (Homo sapiens) (UniProt Q9P0L2); details: at 1 µM
Sequence (Q9P0L2 whole entry, looked up): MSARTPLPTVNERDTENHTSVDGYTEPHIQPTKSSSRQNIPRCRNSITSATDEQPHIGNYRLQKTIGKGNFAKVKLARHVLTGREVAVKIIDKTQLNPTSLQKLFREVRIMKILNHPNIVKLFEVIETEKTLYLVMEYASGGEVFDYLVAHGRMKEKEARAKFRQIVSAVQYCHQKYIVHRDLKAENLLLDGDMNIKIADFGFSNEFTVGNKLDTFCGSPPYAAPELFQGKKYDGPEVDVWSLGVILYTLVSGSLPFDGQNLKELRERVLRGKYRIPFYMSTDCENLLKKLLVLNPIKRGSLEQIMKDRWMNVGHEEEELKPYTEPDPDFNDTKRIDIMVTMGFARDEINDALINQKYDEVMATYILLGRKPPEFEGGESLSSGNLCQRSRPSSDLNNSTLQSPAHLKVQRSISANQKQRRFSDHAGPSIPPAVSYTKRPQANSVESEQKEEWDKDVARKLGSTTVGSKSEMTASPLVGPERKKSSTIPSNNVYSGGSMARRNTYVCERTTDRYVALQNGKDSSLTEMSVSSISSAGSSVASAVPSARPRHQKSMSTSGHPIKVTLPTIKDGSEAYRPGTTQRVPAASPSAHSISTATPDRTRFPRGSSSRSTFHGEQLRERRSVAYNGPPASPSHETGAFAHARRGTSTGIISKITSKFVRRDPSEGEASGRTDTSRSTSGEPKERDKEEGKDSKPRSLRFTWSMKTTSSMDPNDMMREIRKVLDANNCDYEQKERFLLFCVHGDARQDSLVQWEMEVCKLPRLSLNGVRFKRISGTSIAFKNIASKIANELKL
reported.property: residual activity (%)

> print(dat)
                            smiles.notation  unit  quantitative.result
1          O=[N+]([O-])/C=C/c1ccc2c(c1)OCO2     %                   91
2  O=C1NC(=O)c2c1c1c3ccccc3n3c1c1c2c2ccccc2n1C1CCC3O1     %                   38
3  O=c1[nH]c2ccccc2n1C1CCN(Cc2ccc(-c3nc4cc5[nH]cnc5cc4nc3-c3ccccc3)cc2)CC1     %                   99
